Target: T1, human insulin receptor isoform A with C-terminal C9 tag (human, UniProt P06213 28-1382)
T1 construct: membranes of stably transfected HEK293 cells; also called hIR-A; human IR-A
Test: 125I-insulin competition SPA, hIR-A membranes, 0.1% BSA
pKi: −log10 of the molar value.
Returns one of Yes or No; Yes when pKi is >= 7.

Answer whether pKi of INS Analog 14 (other, single-chain insulin B-L2-A-L1-VHH fusion; also called Ex. 14) FVSQHLCGSHLVEALRLVCGERGFFYTPKTGGGGGGGIVEQCCTSICSLYQLENYCGPGPAPGPAPGPAPGPAPGPAPGPAPGPAPGPAEVQLLESGGGLVQPGGSLRLSCAASGRYIDETAVAWFRQAPGKEREFVAGIGGGVDITYYADSVKGRFTISRDNSKNTLYLQMNSLRPEDTAVYYCAARPGRPLITSKVADLYPYWGQGTLVTVSSPP is greater than or equal to 7.
No

Answer whether pKi of INS Analog 13 (other, single-chain insulin B-L2-A-L1-VHH fusion; also called Ex. 13) FVSQHLCGSHLVEALHLVCGERGFHYTPKTGGGGGGGIVEQCCHSICSLEQLENYCGPGPAPGPAPGPAPGPAPGPAPGPAPGPAPGPAEVQLLESGGGLVQPGGSLRLSCAASGRYIDETAVAWFRQAPGKEREFVAGIGGGVDITYYADSVKGRFTISRDNSKNTLYLQMNSLRPEDTAVYYCAARPGRPLITSKVADLYPYWGQGTLVTVSSPP is greater than or equal to 7.
Yes

Answer whether pKi of INS Analog 3 (other, single-chain insulin B-L2-A-L1-VHH fusion; also called Ex. 3) FVNQHLCGAHLVEALYLVCGERGFFYTPKTGGGGGGGIVEQCCTSICSLYQLENYCGPGPAPGPAPGPAPGPAPGPAPGPAPGPAPGPAEVQLLESGGGLVQPGGSLRLSCAASGRTVSSTAVAWFRQAPGKEREFVAGIGGSVDITYYADSVKGRFTISRDNSKNTLYLQMNSLRPEDTAVYYCAVRPGRPLITSRDANLYDYWGQGTLVTVSS is greater than or equal to 7.
Yes

Values compiled from patent US20220378931A1.
